quantityKind: melting point

Qu. # get_value(readout='melting point', item= `O=C(O)c1cc(I)cc([N+](=O)[O-])c1` )
Ans. 167 to 169 °C

Qu. Next compound up: `Nc1nc(C(F)(F)F)no1`
Ans. 97 to 99 °C

Qu. What do you have for `COC(=O)COc1ccc(N)c(C)c1` ?
Ans. 104 to 106 °C

====

Recorded melting point values for a group of compounds are listed next.

Previously resolved entries follow.
O=C(O)COc1ccc2oc3c(c2c1)CCCC3 :: 188 to 190 °C
COc1ccc(-c2ccc(C#N)c(=O)[nH]2)cc1OC :: 272 to 274 °C
Cc1ccc(SCCC(=O)O)cc1C :: 35 to 37 °C
COCCOc1ccc(C(=O)O)cc1OC :: 149 to 151 °C
O=C(O)c1cc([N+](=O)[O-])c2nsnc2c1 :: 199 to 201 °C
O=C(CCl)Nc1ccc(N2CCCC2=O)cc1 :: 258 to 260 °C
CC(=O)c1ccc(C)c([N+](=O)[O-])c1 :: 59 to 62 °C
C#CCOc1ccc(C=O)cc1 :: 75 to 77 °C
O=C(O)C1CCn2ccnc2C1 (centres undefined) :: 231 to 233 °C
COc1ncc(C)cc1N :: 77 to 79 °C

Qu. Look up melting point for this compound: `COc1ccc(Br)c(C(N)=S)c1`
Ans. 142 to 144 °C

Qu. // next record `O=C(O)c1cc(NS(=O)(=O)c2cccs2)ccc1O`
Ans. 209 to 211 °C

Qu. // repeat for `O=C(O)CN1C(=O)c2ccc(Br)cc2C1=O` and report
Ans. 204 to 206 °C

Qu. Now try `CCn1c(N)nc2ccccc21` .
Ans. 152 to 154 °C

Qu. Same question, `CCCOC(=O)c1cc(-c2cncnc2)ccc1N` this time
Ans. 145 to 147 °C

Qu. Now give it for `N#CCC(=O)NCCN1CCOCC1` too.
Ans. 68 to 75 °C

Qu. Record: `Cc1nncn1C1CC1`
Ans. 49 to 51 °C

====

Known melting point of a selection of compounds

Study these solved cases before continuing.
Clc1nc(CN2CCCCC2)nc2scc(-c3cccs3)c12 :: 89 to 91 °C
Sc1nnc(N2CCOCC2)s1 :: 179 to 181 °C
Nc1cccc(OCc2cccnc2)c1 :: 97 to 99 °C
Cn1cc(S(=O)(=O)Cl)cc1C(N)=O :: 132 to 134 °C

Qu. Give its melting point value. Item: `Clc1nccc(-n2cccn2)n1`
Ans. 118 to 120 °C

Qu. Please answer likewise for `COc1cccc(-n2nc(C)c(CCC(=O)O)c2C)c1`
Ans. 104 to 115 °C

Qu. Also `O=C1Nc2cccc(Br)c2C1=O` ?
Ans. 229 to 231 °C

Qu. Moving on to `Nc1cc(-c2ccc(Cl)cc2)nn1-c1ccccc1`
Ans. 191 to 193 °C

====

Catalogue of melting point values

Examples with their reported melting point follow.
CCc1ccc(C(N)C(=O)O)cc1 (stereo not given) :: 219 to 221 °C
CCC(=CC(=O)O)c1ccccc1 :: 92 to 94 °C
CCCCN(C)S(=O)(=O)c1ccc(N)cc1 :: 76 to 80 °C

Now consider the entry below.
Qu. Consider the molecule `COc1ccc(CNc2nccs2)c(OC)c1` and give its measured melting point.
Ans. 112 to 114 °C

====

// melting point lookup, one value per entry

Completed entries (count: 5):
O=C(O)CNS(=O)(=O)c1ccccc1F :: 170 to 172 °C
CC(Sc1ccccn1)C(=O)O (centres undefined) :: 70 to 72 °C
O=C(O)c1cc(C2CC2)nc2c1cnn2Cc1ccncc1 :: 238 to 240 °C
CC(CSc1ccc(F)cc1)C(=O)O (centres undefined) :: 61 to 63 °C
CC(C)n1cccc1C(=O)O :: 106 to 108 °C

Qu. For `Nc1ccc(S(=O)(=O)NCC2CC2)cc1` , what is its reported melting point?
Ans. 109 to 111 °C

Qu. Subsequent entry: `Cc1nn(C)c(C)c1CCC(=O)O`
Ans. 137 to 139 °C

Qu. Moving on to the next compound: `CC(C)CN1C(=O)NC(=O)C1=O`
Ans. 145 to 148 °C

Qu. Further, for `COC(=O)c1ccc(C=O)[nH]1` ?
Ans. 99 to 101 °C

Qu. Can you check `O=C(NC1CC1)c1cc(S)nc2ccccc12` next?
Ans. 301 to 303 °C

====

Below is a list of entries, each paired with its recorded melting point value.

Recorded melting point, per entry:
COc1ccc(/C=C/c2cc(C(=O)O)c3cc(Br)ccc3n2)cc1 :: 295 to 297 °C
O=C1CN(C(=O)c2ccc(Cl)nc2)CCN1 :: 163 to 165 °C
O=C(O)Cn1cc(C2CC2)nn1 :: 183 to 185 °C
CC(C)c1ccc(CCC(N)=O)cc1 :: 142 to 144 °C
O=C(c1ccc(F)cc1F)N1CCCNCC1 :: 93 to 95 °C

Qu. Report melting point for `O=C(O)COc1ccc(S(=O)(=O)Cl)cc1F` please.
Ans. 131 to 133 °C

Qu. Subsequent entry: `COc1cc(C=O)ccc1OCC(F)(F)F`
Ans. 66 to 68 °C

Qu. Entry to check: `Nc1ccc(-n2cncn2)c(Cl)c1`
Ans. 131 to 133 °C

Qu. Also `CCCSc1ccc([N+](=O)[O-])c(N)c1` , if possible.
Ans. 71 to 74 °C

Qu. Also check CC12CSCC(=O)N1C(C(=O)O)CS2 (centres undefined)
Ans. 202 to 204 °C

Qu. // query: `Cc1cccc(-c2nc(C(=O)O)c(C)[nH]2)c1`
Ans. 149 to 151 °C

Qu. Item: `NNc1c(F)cc(F)cc1Cl`
Ans. 87 to 89 °C

Qu. How about this molecule: `ClCc1cccc(Cl)n1`
Ans. 42 to 44 °C

Qu. // query: `O=C(O)CCNC(=O)c1ccc(Cl)cc1`
Ans. 167 to 169 °C

====

quantityKind: melting point

Qu. What measured melting point goes with `CC(C)c1nc(C(=O)O)nn1-c1c(Cl)cccc1Cl` ?
Ans. 179 to 181 °C

Qu. What do you get for `CC(C)(C)Nc1ccc(C(=O)O)cc1S(=O)(=O)NC(C)(C)C` ?
Ans. 243 to 245 °C

====

quantityKind: melting point

// known answers, use as guide
O=C(CCl)c1ccc2c(c1)-c1ccccc1C2 :: 133 to 135 °C
O=C(O)C1(O)CCC1 :: 39 to 41 °C
O=C(CCl)Nc1ccc(-c2ccccc2)cc1 :: 121 to 123 °C
O=C(O)c1ccc(C2SCCS2)cc1 :: 166 to 168 °C
CC(=O)Oc1cccc2ccc(O)nc12 :: 251 to 253 °C
Cc1csc2nc(CO)cc(=O)n12 :: 154 to 156 °C

Switching to the query record.
Qu. Endpoint output: melting point of `N#Cc1ccc(F)c(Cn2ccnc2)c1` . Value?
Ans. 91 to 93 °C

====

A collection of compounds and their measured melting point

CCC(NC(=O)OC(C)(C)C)C(=O)O (centres undefined) :: 88 to 90 °C
COC(=O)CC1=NC(=O)CS1 :: 184 to 186 °C
Cc1cc(C(=O)CCl)c(C)n1-c1ccccc1F :: 86 to 90 °C

Qu. Give the measured melting point of `Nc1ccc(N2CCNC(=O)C2)c(Cl)c1` .
Ans. 147 to 149 °C

Qu. Also `Nc1nc(CN2CCCCC2)cs1` , if possible.
Ans. 153 to 155 °C

Qu. Could you do the same for `CS(=O)(=O)c1ccc(Cl)c(C(=O)O)c1` , please?
Ans. 183 to 185 °C

Qu. Next compound up: `C=CC(=O)Nc1ccc(OCC)c(OC)c1`
Ans. 117 to 119 °C

Qu. What do you get for `O=C(O)CCCN1C(=O)CCc2ccccc21` ?
Ans. 179 to 181 °C

====

quantityKind: melting point

Here's what some known entries look like.
C=CC(=O)Nc1cccc(Cl)c1 :: 106 to 108 °C
Cc1c(C(=O)O)cnc2c1c(=O)n(C)c(=O)n2C :: 279 to 281 °C
O=c1ccc(-c2ccc3c(c2)OCCCO3)n[nH]1 :: 199 to 201 °C
CCCCCCOC(=O)c1ccc(N)cc1 :: 59 to 61 °C
SCCCNc1ncccn1 :: 45 to 47 °C

Qu. Data request, read-out melting point, for `Cc1cc(NS(C)(=O)=O)ccc1Br`
Ans. 102 to 104 °C

Qu. # repeat for `Cc1cnn([N+](=O)[O-])c1`
Ans. 41 to 43 °C
